These entries and their values trace back to paper PMC10397247.

- assay.system: T1, 4H349-bA
- T1 chain: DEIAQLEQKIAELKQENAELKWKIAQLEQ
- assay.summary: two-hybrid library CCNG1;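 note: natural log of median RNA to DNA barcode read ratio; higher means stronger binding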

[
  {
    "binder": "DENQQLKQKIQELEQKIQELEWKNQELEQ [4H1831-bN]",
    "interaction score": -1.73
  },
  {
    "binder": "DKNAQLEQKIAELEQKNAELEWKIAQLEQ [4H3381-bA]",
    "interaction score": -1.06
  },
  {
    "binder": "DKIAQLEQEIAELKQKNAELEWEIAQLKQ [4H2162-bA]",
    "interaction score": 0.82
  },
  {
    "binder": "DKNAQLEQKIAELEQKIAELEWENAQLKQ [4H3364-bA]",
    "interaction score": -1.53
  },
  {
    "binder": "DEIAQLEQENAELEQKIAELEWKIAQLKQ [4H166-bA]",
    "interaction score": -0.678
  }
]
